Numbers sourced from patent US20240059769A1.

Molecular target: T1, recombinant cynomolgus monkey IL-13 (cynomolgus monkey, UniProt Q0PW92 21-132)
T1 construct: bought; also called rc-IL-13; cIL-13
T1 sequence (Q0PW92 entry or part of it): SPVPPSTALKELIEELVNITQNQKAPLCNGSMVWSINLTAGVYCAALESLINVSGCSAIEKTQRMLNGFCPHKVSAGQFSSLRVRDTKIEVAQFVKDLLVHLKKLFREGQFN
Assay: SPR

[
  {
    "binder": "BDG38.092 (antibody, V domains shown, IgG1) VH: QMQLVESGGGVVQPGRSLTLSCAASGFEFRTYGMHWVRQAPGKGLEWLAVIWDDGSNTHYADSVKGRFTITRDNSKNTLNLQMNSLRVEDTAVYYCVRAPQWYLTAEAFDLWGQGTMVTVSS VL: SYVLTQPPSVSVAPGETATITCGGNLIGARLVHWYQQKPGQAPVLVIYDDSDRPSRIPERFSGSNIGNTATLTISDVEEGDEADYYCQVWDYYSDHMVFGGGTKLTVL",
    "koff / s⁻¹": 0.00129
  }
]
